Conditions: Ebola virus entry assay, green fluorescence channel
Measured potencies and affinities stand elsewhere.
Outcome: YES for efficacy of at least 20%; NO for anything lower.

# check: efficacy of CC(=O)N(CC(=O)N(C)C)c1ccccc1 is greater than or equal to 20%
YES

In plain terms: is recorded efficacy at least 20% for Cc1ccc(=O)n(-c2ccccc2)c1 ?
NO

Check if efficacy >= 20% (inclusive). Item: CC(C)C[C@@H](N)C(=O)O
NO

Does the molecule C[C@H]1NCc2cc(-c3ccc4c(=O)c(C(=O)O)cn(C5CC5)c4c3OC(F)F)ccc21 have recorded efficacy that is 20% or more?
NO

Check this molecule for efficacy at or above 20%: CC(Cc1ccccc1)NCCCCl (stereo not given)
YES

# check: efficacy of COc1cc(C(=O)OCCCN2CCCN(CCCOC(=O)c3cc(OC)c(OC)c(OC)c3)CC2)cc(OC)c1OC is greater than or equal to 20%
YES

Check if efficacy >= 20% (inclusive). Item: N#Cc1cc(NC(=O)C(=O)O)c(Cl)c(NC(=O)C(=O)O)c1
NO

Check this molecule for efficacy at or above 20%: CCC(=O)OC1(c2ccccc2)CCN(C)CC1
YES

Quick check, efficacy >= 20%? CCN(CC)CC(=O)Nc1c(C)cccc1C
NO

Form field: efficacy at least 20%? Entry: O[C@@H](COc1cccc2ncccc12)CN1CCN(C2c3ccccc3[C@@H]3[C@H](c4ccccc42)C3(F)F)CC1 (stereo not given in full)
YES

Tell me whether efficacy is at least 20% here: CCCOC(C(=O)OC1CCN(C)CC1)(c1ccccc1)c1ccccc1
YES

Say whether Oc1c(I)cc(Cl)c2cccnc12 shows efficacy of 20% or more.
YES

State whether the measured efficacy reaches 20%, counting equality as reaching it, for CC[C@H](c1ccc(O)cc1)[C@@H](CC)c1ccc(O)cc1
NO

Could you please find out whether O=c1[nH]c2cc(Cl)ccc2n1C1CCNCC1 has efficacy that meets 20% or exceeds it?
NO

# bool: efficacy of CC1=C(C)C(=O)C(C(CCCCCC(=O)O)c2ccccc2)=C(C)C1=O (stereo not given) >= 20%
YES

Could you please find out whether COc1ccc2c(c1)c(CC(=O)OCC(=O)O)c(C)n2C(=O)c1ccc(Cl)cc1 has efficacy that meets 20% or exceeds it?
YES

Does the reported efficacy for CCNC(=O)NCc1cccc(Cl)c1 fall at or above the 20% mark?
NO

efficacy >= 20% for CCCC[N+]1(C)[C@@H]2CC(OC(=O)[C@H](CO)c3ccccc3)C[C@H]1[C@@H]1O[C@@H]12 (stereo not given in full) ?
NO

Quick check, efficacy >= 20%? COC(=O)C1=CCCN(C)C1
YES

Form field: efficacy at least 20%? Entry: CC(C)(C)NCC(O)COc1cccc2c1CCC(=O)N2 (stereo not given)
NO

Given CN(C)CCCOC1(Cc2ccccc2)CCCCCC1 , state whether its efficacy is at least 20%.
YES

Does efficacy meet or surpass 20% for Cc1ccc2nc(N)[nH]c(=O)c2c1Sc1ccncc1 ?
NO

Quick check: does OC[C@H]1O[C@@H](OCCc2ccc(O)cc2)[C@H](O)[C@@H](O)[C@H]1O have efficacy greater than or equal to 20%?
NO

State whether the measured efficacy reaches 20%, counting equality as reaching it, for CN1CCC(N(Cc2cccs2)c2ccccc2)CC1
YES

Determine whether measured efficacy meets or exceeds 20% for Cc1c(C(=O)NN2CCCCC2)nn(-c2ccc(Cl)cc2Cl)c1-c1ccc(Cl)cc1
YES

Decide: efficacy of O=C(O)[C@H](O)[C@@H](O)[C@H](O[C@@H]1O[C@H](CO)[C@H](O)[C@H](O)[C@H]1O)[C@H](O)CO >= 20%?
YES

Please indicate if the recorded efficacy for CCc1cccc(N(C)C(N)=Nc2cccc3ccccc23)c1 meets or exceeds 20%.
YES

Is it the case that CCCCCCCCCCCC[N+](C)(C)CCOc1ccccc1 has efficacy reaching or exceeding 20%?
NO

Check if efficacy >= 20% (inclusive). Item: CCCCCCCCC(=O)NCc1ccc(O)c(OC)c1
NO

Could you tell me if the measured efficacy of CC1(C)[C@@H](OC(=O)CCC(=O)O)CC[C@]2(C)[C@H]3C(=O)C=C4[C@@H]5C[C@@](C)(C(=O)O)CC[C@]5(C)CC[C@@]4(C)[C@]3(C)CC[C@@H]12 reaches 20% or more?
NO

efficacy >= 20% for CCOc1c(N2CCOCC2)cnn(C)c1=O ?
NO

// inclusive: efficacy at least 20%? input: O=C1NC(=O)[C@@]2(CCOc3ccc(F)cc32)N1
NO

Hi, just wondering whether COc1ccc(CN2CCN(C(c3ccc(F)cc3)c3ccc(F)cc3)CC2)c(OC)c1OC shows efficacy of 20% or higher.
YES

Item CC(Cc1cccc(C(F)(F)F)c1)NCCOC(=O)c1ccccc1 (stereo not given) with efficacy of 20% or above?
YES

Does the molecule C[C@]12CCC(=O)C=C1[C@@H]1C[C@@H]1[C@H]1[C@@H]3[C@@H]4C[C@@H]4[C@@]4(CCC(=O)O4)[C@@]3(C)CC[C@@H]12 have recorded efficacy that is 20% or more?
YES

Could you please find out whether CC(C)(C)c1ccc(C(O)CCCN2CCC(C(O)(c3ccccc3)c3ccccc3)CC2)cc1 (stereo not given) has efficacy that meets 20% or exceeds it?
YES

Please indicate if the recorded efficacy for Cc1nnc2n1-c1sc(CCc3ccc(CC(C)C)cc3)cc1C(c1ccccc1Cl)=NC2C (stereo not given) meets or exceeds 20%.
YES

Is efficacy for OC(CCN1CCCCC1)(c1ccccc1)C1CC2C=CC1C2 (stereo not given) at or above 20%?
NO

Determine whether measured efficacy meets or exceeds 20% for COP(=O)(OC)OC=C(Cl)Cl
YES

Check if efficacy >= 20% (inclusive). Item: Nc1ccc2cc3ccc(N)cc3nc2c1
YES

Please check the record COC(=O)[C@H]1[C@H]2C[C@@H]3c4[nH]c5cc(OC)ccc5c4CCN3C[C@H]2C[C@@H](OC(=O)/C=C/c2ccc(O)c(OC)c2)[C@@H]1OC and state if its efficacy is at or above 20%.
NO

Is the recorded value of efficacy equal to or greater than 20% for this molecule? O=C(NCC1CN(c2ccc(N3CCOCC3=O)cc2)C(=O)O1)c1ccc(Cl)s1 (stereo not given)
YES

Is efficacy at least 20%? Consider O=C(CCNNC(=O)c1ccncc1)NCc1ccccc1
NO
